Tested on: pathogenic bacteria
test_method_notes: MIC by microdilution broth method (NCCLS M7-A4), in vitro antibacterial activity
Assay type: cell-based
measurement_parameters: Streptococcus pneumoniae, Organism C: fluoroquinolone-resistant clinical isolate of Streptococcus pneumoniae (QRDR amino acid substitutions)
Where a name gives a salt, the structure may show the parent alone.
Answer each item with its documented MIC.

Recorded results for 3 compounds are shown here.
{"compound": "O=C(O)C(F)(F)F.O=C(O)c1cn(C2CC2)c2nc(N3CCC(=C(F)CN4CCNCC4)CC3)c(F)cc2c1=O [Compound 294]", "readout_kind": "MIC", "result": "> 16 µg/mL"}
{"compound": "NC/C(F)=C1/CCCN(c2c(F)c(N)c3c(=O)c(C(=O)O)cn(C4CC4)c3c2F)C1 [Compound 456]", "readout_kind": "MIC", "result": "0.12 µg/mL"}
{"compound": "CC(CN)=C1CCN(c2nc3c(cc2F)c(=O)c(C(=O)O)cn3C2CC2)CC1 [Compound 2]", "readout_kind": "MIC", "result": "1 µg/mL"}

Attention now turns to another entry.
Item: NC/C(F)=C1/CCCN(c2cc3c(cc2F)c(=O)c(C(=O)O)cn3C2CC2)C1 [Compound 256, Trifluoroacetic Acid Salt] | MIC: 1 µg/mL

###

Answer each item with its documented MIC.
Tested on: pathogenic bacteria
test_method_notes: MIC by microdilution broth method (NCCLS M7-A4), in vitro antibacterial activity
Format: cell-based
measurement_parameters: Staphylococcus aureus, Organism A: Staphylococcus aureus OC4172; read-out: MIC
One number for each entry, in µg/mL.

Recorded results for 5 compounds are shown here.
{"compound": "C[C@H]1COc2c(N3CCOC/C(=C(/F)CN)C3)c(F)cc3c(=O)c(C(=O)O)cn1c23 [Compound 494]", "measurement_units": "µg/mL", "MIC": 1}
{"compound": "NC/C(Cl)=C1\\CCCN(c2cc3c(cc2F)c(=O)c(C(=O)O)cn3C2CC2)CC1 [Compound 386]", "measurement_units": "µg/mL", "MIC": 0.25}
{"compound": "N#CC(CN)=C1CCN(c2cc3c(cc2F)c(=O)c(C(=O)O)cn3C2CC2)CC1 [Compound 285]", "measurement_units": "µg/mL", "MIC": 0.25}
{"compound": "C[C@H]1COc2c(N3CCC/C(=C/CN)C3)c(F)cc3c(=O)c(C(=O)O)cn1c23 [Compound 402]", "measurement_units": "µg/mL", "MIC": 0.25}
{"compound": "CNC/C(Cl)=C1/CCCN(c2cc3c(cc2F)c(=O)c(C(=O)O)cn3C2CC2)C1.Cl [Compound 428]", "measurement_units": "µg/mL", "MIC": 0.25}

Field: MIC. Fill in for each record below.
1. NC/C(F)=C1\CCCN(c2c(F)cc3c(=O)c(C(=O)O)cn(-c4nc(N)c(F)cc4F)c3c2Cl)C1 [Compound 411]
2. C/C(CN)=C1/CCCN(c2cc3c(cc2F)c(=O)c(C(=O)O)cn3C2CC2)C1 [Compound 385]
3. O=C(O)c1cn(C2CC2)c2nc(N3CCC(=C(F)CO)CC3)c(F)cc2c1=O [Compound 172]
4. N#C/C(CN)=C1/CCCN(c2nc3c(cc2F)c(=O)c(C(=O)O)cn3C2CC2)C1 [Compound 443]
5. NCC(Cl)=C1CCN(c2cc3c(cc2F)c(=O)c(C(=O)O)cn3C2CC2)CC1 [Compound 65]

Key:
1: 0.06; 2: 1; 3: 0.06; 4: 0.5; 5: 0.03

Field: MIC. Fill in for each record below.
1. CC(C)NCC(Cl)=C1CCN(c2cc3c(cc2F)c(=O)c(C(=O)O)cn3C2CC2)CC1 [Compound 248]
2. COc1c(N2CCC(=C(F)CCN)CC2)c(F)cc2c(=O)c(C(=O)O)cn(C3CC3)c12 [Compound 467]
3. CC(C)NCC(F)=C1CCN(c2c(F)cc3c(=O)c(C(=O)O)cn(C4CC4)c3c2OC(F)F)CC1 [Compound 251]

Key:
1. 0.5
2. 0.12
3. 0.5
